Assay: Phase 1/2 clinical study: pharmacokinetics
Assay type: in vivo, human
Conditions: human, plasma, oral, 75 mg, Cycle 1 Day 15; 75 mg QD; geometric mean

# mol, Cmax (ng/mL)
data = [
    ("CCn1ncc2c1-c1cnc(N)c(c1)O[C@H](C)c1cc(F)ccc1-c1nn(C)nc1C2", 730),
]

* * *

Test: Phase 1/2 clinical study: pharmacokinetics
Format: in vivo, human
Details: human, plasma, oral; Cycle 1 Day 1; 25 mg QD; geometric mean
readout label: AUC(0-t) (ng·h/mL)

# mol, obs value
records = [
    ("CCn1ncc2c1-c1cnc(N)c(c1)O[C@H](C)c1cc(F)ccc1-c1nn(C)nc1C2", 1360),
]
